tested on: OV-90 (Ovarian Carcinoma); experiment: Bliss excess, mean over the matrix (fraction); higher = more synergy;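 further: after 72 h of two-drug dosing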
Reported Bliss excess values for the following molecules.
// return a plain number; no unit text

>>> value_measured("CCc1c2c(nc3ccc(O)cc13)-c1cc3c(c(=O)n1C2)COC(=O)[C@]3(O)CC [SN-38] + O=C(c1cc(Cc2n[nH]c(=O)c3ccccc23)ccc1F)N1CCN(C(=O)C2CC2)CC1 [Olaparib] (first compound max 0.3 µM, 7x7, partner max 10 µM)")
0.0633
>>> value_measured("COc1cccc(OCCCN)c1-c1cc(Nc2cnc(C#N)cn2)n[nH]1 [Prexasertib] + Cc1cc2ncnn2cc1Nc1ncc2c(n1)n(C1CCOCC1)c(=O)n2C [AZD7648] (first compound max 1 µM, 7x7, partner max 10 µM)")
0.0252
>>> value_measured("CS(=O)(=O)CCNCc1ccc(-c2ccc3ncnc(Nc4ccc(OCc5cccc(F)c5)c(Cl)c4)c3c2)o1 [Lapatinib] + C[C@@H](Oc1cc(-c2cnn(C3CCNCC3)c2)cnc1N)c1c(Cl)ccc(F)c1Cl [Crizotinib] (first compound max 10 µM, 7x7, partner max 10 µM)")
-0.0019

GET /values?readout=Bliss excess&item= Cc1c2c(nn1C)CSCc1cc(n(C)n1)CSc1cc(c3ccccc3c1)OCCCc1c(C(=O)O)n(C)c3c-2c(Cl)ccc13 [AZD5991] + CC1(C)CCC(CN2CCN(c3ccc(C(=O)NS(=O)(=O)c4ccc(NCC5CCOCC5)c([N+](=O)[O-])c4)c(Oc4cnc5[nH]ccc5c4)c3)CC2)=C(c2ccc(Cl)cc2)C1 [Venetoclax] (first compound max 1 µM, 7x7, partner max 1 µM) -0.0303

GET /values?readout=Bliss excess&item= Cc1c2c(nn1C)CSCc1cc(n(C)n1)CSc1cc(c3ccccc3c1)OCCCc1c(C(=O)O)n(C)c3c-2c(Cl)ccc13 [AZD5991] + CN(C)CCCOc1ccc(-c2ccc3ncc4c(c3c2)n(C2CCOCC2)c(=O)n4C)cn1 [AZD0156] (first compound max 1 µM, 7x7, partner max 1 µM) -0.0068

GET /values?readout=Bliss excess&item= C[C@@H]1COCCN1c1cc(C2([S@](C)(=N)=O)CC2)nc(-c2ccnc3[nH]ccc23)n1 [AZD6738] + O=C(c1cc(Cc2n[nH]c(=O)c3ccccc23)ccc1F)N1CCN(C(=O)C2CC2)CC1 [Olaparib] (first compound max 10 µM, 7x7, partner max 10 µM) 0.0053

GET /values?readout=Bliss excess&item= C[C@@H](Nc1cc(F)cc(F)c1)c1cc(C(=O)N(C)C)cc2c(=O)cc(N3CCOCC3)oc12 [AZD8186] + C1CN(CCC1(C(=O)N[C@@H](CCO)C2=CC=C(C=C2)Cl)N)C3=NC=NC4=C3C=CN4 [AZD5363] (first compound max 10 µM, 7x7, partner max 10 µM) -0.0556

---

system: CML-T1 (Chronic Myelogenous Leukemia); assay: combination Emax (second highest fraction inhibited in the dose matrix, 72 h); higher = more inhibition; extreme values may be limits of the assay
Reported combination Emax values for the following compounds.
// return a plain number; no unit text

Please review the entries below; each comes with its answer.
>>> value_measured("CN(C)CCCOc1ccc(-c2ccc3ncc4c(c3c2)n(C2CCOCC2)c(=O)n4C)cn1 [AZD0156] + O=C(c1cc(Cc2n[nH]c(=O)c3ccccc23)ccc1F)N1CCN(C(=O)C2CC2)CC1 [Olaparib] (first compound max 3 µM, partner max 3 µM)")
0.688
>>> value_measured("CN(CCO)CC[C@H](CSc1ccccc1)Nc1ccc(S(=O)(=O)NC(=O)c2ccc(N3CCC([C@@H](O)c4ccccc4-c4ccc(Cl)cc4)CC3)cc2)cc1S(=O)(=O)C(F)(F)F [AZD4320] + CC(=O)O[C@H]1C(=O)[C@@]2(C)[C@H]([C@H](OC(=O)c3ccccc3)[C@]3(O)C[C@H](OC(=O)[C@H](O)[C@@H](NC(=O)c4ccccc4)c4ccccc4)C(C)=C1C3(C)C)[C@]1(OC(C)=O)CO[C@@H]1C[C@@H]2O [Paclitaxel] (first compound max 1 µM, 7x7, partner max 3 µM)")
1
>>> value_measured("CC(=O)c1c(C)c2cnc(Nc3ccc(N4CCNCC4)cn3)nc2n(C2CCCC2)c1=O [Palbociclib] + Cn1cnc2c(F)c(Nc3ccc(Br)cc3Cl)c(C(=O)NOCCO)cc21 [Selumetinib] (first compound max 10 µM, 7x7, partner max 10 µM)")
0.926

Kindly consider the entry below.
Query the reported combination Emax for CML-T1 (Chronic Myelogenous Leukemia); item: C=CCn1c(=O)c2cnc(Nc3ccc(N4CCN(C)CC4)cc3)nc2n1-c1cccc(C(C)(C)O)n1 [AZD1775] + C[C@@H]1COCCN1C2=NC(=NC(=C2)C3(CC3)[S@](=N)(=O)C)C4=C5C=CNC5=NC=C4 [AZD6738] (first compound max 1 µM, partner max 10 µM) 0.971

src = the supplement of paper PMC11061612
